Reported Bone uptake values for a set of molecules
Tested on: mice bearing PSMA-expressing LNCAP cancer xenografts
Assay: Biodistribution of 68Ga-labeled compounds
Format: in vivo
Details: 3 h post-injection
readout_name: Bone uptake (% ID/g)

molecule: O=C([O-])CN1CCN(CC(=O)[O-])CCN(CC(=O)NCCCC[C@H](NC(=O)CNC(=O)CCCc2ccccc2)C(=O)NC[C@H]2CC[C@H](C(=O)N[C@@H](Cc3ccc4ccccc4c3)C(=O)NCCCC[C@H](NC(=O)N[C@@H](CCC(=O)O)C(=O)O)C(=O)O)CC2)CCN(CC(=O)[O-])CC1.[68Ga+3] [^68Ga-HTK03056]
readout_value: 1.93
--
molecule: O=C([O-])CN1CCN(CC(=O)[O-])CCN(CC(=O)NCCCC[C@H](NC(=O)CNC(=O)CCc2ccccc2)C(=O)NC[C@H]2CC[C@H](C(=O)N[C@@H](Cc3ccc4ccccc4c3)C(=O)NCCCC[C@H](NC(=O)N[C@@H](CCC(=O)O)C(=O)O)C(=O)O)CC2)CCN(CC(=O)[O-])CC1.[68Ga+3] [^68Ga-HTK03082]
readout_value: 0.01

----------
System: mice bearing PSMA-expressing LNCAP cancer xenografts
Assay: Biodistribution of 68Ga-labeled compounds
Assay type: in vivo
Details: 1 h post-injection
readout_name: Salivary uptake (% ID/g)

compound: O=C([O-])CN1CCN(CC(=O)[O-])CCN(CC(=O)NCC2CCC(C(=O)NC(Cc3ccc4ccc5cccc6ccc3c4c56)C(=O)NCCCCC(NC(=O)NC(CCC(=O)O)C(=O)O)C(=O)O)CC2)CCN(CC(=O)[O-])CC1.[68Ga+3] (stereo not shown) [^68Ga-HTK03029]
unit_info: % ID/g
readout_value: 3.27

compound: O=C([O-])CN1CCN(CC(=O)[O-])CCN(CC(=O)NCC2CCC(C(=O)NC(Cc3ccc4cc5ccccc5cc4c3)C(=O)NCCCCC(NC(=O)NC(CCC(=O)O)C(=O)O)C(=O)O)CC2)CCN(CC(=O)[O-])CC1.[68Ga+3] (stereo not shown) [^68Ga-HTK03027]
unit_info: % ID/g
readout_value: 1.86

compound: O=C([O-])CN1CCN(CC(=O)[O-])CCN(CC(=O)NCCCC[C@H](NC(=O)CNC(=O)CCc2ccccc2)C(=O)NC[C@H]2CC[C@H](C(=O)N[C@@H](Cc3ccc4ccccc4c3)C(=O)NCCCC[C@H](NC(=O)N[C@@H](CCC(=O)O)C(=O)O)C(=O)O)CC2)CCN(CC(=O)[O-])CC1.[68Ga+3] [^68Ga-HTK03082]
unit_info: % ID/g
readout_value: 1.17

compound: CCCCCCC(NC(=O)C1CCC(CNC(=O)CN2CCN(CC(=O)[O-])CCN(CC(=O)[O-])CCN(CC(=O)[O-])CC2)CC1)C(=O)NCCCCC(NC(=O)NC(CCC(=O)O)C(=O)O)C(=O)O.[68Ga+3] (stereo not shown) [^68Ga-HTK03026]
unit_info: % ID/g
readout_value: 0.83

----------
Test system: mice bearing PSMA-expressing LNCAP cancer xenografts
Experiment: Biodistribution of 68Ga-labeled compounds
Format: in vivo
Conditions: 3 h post-injection

molecule: O=C([O-])CN1CCN(CC(=O)[O-])CCN(CC(=O)NCCCC[C@H](NC(=O)CNC(=O)CCc2ccccc2)C(=O)NC[C@H]2CC[C@H](C(=O)N[C@@H](Cc3ccc4ccccc4c3)C(=O)NCCCC[C@H](NC(=O)N[C@@H](CCC(=O)O)C(=O)O)C(=O)O)CC2)CCN(CC(=O)[O-])CC1.[68Ga+3] [^68Ga-HTK03082]
unit_info: % ID/g
Heart uptake: 0.07
--
molecule: O=C([O-])CN1CCN(CC(=O)[O-])CCN(CC(=O)NCC2CCC(C(=O)NC(Cc3c4ccccc4cc4ccccc34)C(=O)NCCCCC(NC(=O)NC(CCC(=O)O)C(=O)O)C(=O)O)CC2)CCN(CC(=O)[O-])CC1.[68Ga+3] (centres unmarked) [^68Ga-HTK03041]
unit_info: % ID/g
Heart uptake: 0.93

----------
Test system: mice bearing PSMA-expressing LNCAP cancer xenografts
Experiment: Biodistribution of 68Ga-labeled compounds
Assay type: in vivo
Details: 3 h post-injection

molecule: O=C([O-])CN1CCN(CC(=O)[O-])CCN(CC(=O)NCCCC[C@H](NC(=O)CNC(=O)CCCc2ccc(F)cc2)C(=O)NC[C@H]2CC[C@H](C(=O)N[C@@H](Cc3ccc4ccccc4c3)C(=O)NCCCC[C@H](NC(=O)N[C@@H](CCC(=O)O)C(=O)O)C(=O)O)CC2)CCN(CC(=O)[O-])CC1.[68Ga+3] [^68Ga-HTK03085]
Heart uptake, % ID/g: 0.52
--
molecule: O=C([O-])CN1CCN(CC(=O)[O-])CCN(CC(=O)NCCCC[C@H](NC(=O)CNC(=O)CCCc2ccc(Cl)cc2)C(=O)NC[C@H]2CC[C@H](C(=O)N[C@@H](Cc3ccc4ccccc4c3)C(=O)NCCCC[C@H](NC(=O)N[C@@H](CCC(=O)O)C(=O)O)C(=O)O)CC2)CCN(CC(=O)[O-])CC1.[68Ga+3] [^68Ga-HTK03055]
Heart uptake, % ID/g: 3.89

----------
Test system: mice bearing PSMA-expressing LNCAP cancer xenografts
Assay: Biodistribution of 68Ga-labeled compounds
Format: in vivo
Details: 1 h post-injection
Reported Lungs uptake values for a set of molecules
readout_name: Lungs uptake (% ID/g)

molecule: O=C([O-])CN1CCN(CC(=O)[O-])CCN(CC(=O)NCCCC[C@H](NC(=O)CNC(=O)CCc2ccccc2)C(=O)NC[C@H]2CC[C@H](C(=O)N[C@@H](Cc3ccc4ccccc4c3)C(=O)NCCCC[C@H](NC(=O)N[C@@H](CCC(=O)O)C(=O)O)C(=O)O)CC2)CCN(CC(=O)[O-])CC1.[68Ga+3] [^68Ga-HTK03082]
unit_info: % ID/g
readout_value: 1.39

molecule: O=C([O-])CN1CCN(CC(=O)[O-])CCN(CC(=O)NCCCC[C@H](NC(=O)CNC(=O)CCCc2ccc(Cl)cc2)C(=O)NC[C@H]2CC[C@H](C(=O)N[C@@H](Cc3ccc4ccccc4c3)C(=O)NCCCC[C@H](NC(=O)N[C@@H](CCC(=O)O)C(=O)O)C(=O)O)CC2)CCN(CC(=O)[O-])CC1.[68Ga+3] [^68Ga-HTK03055]
unit_info: % ID/g
readout_value: 8.37

molecule: O=C([O-])CN1CCN(CC(=O)[O-])CCN(CC(=O)NCC2CCC(C(=O)NC(Cc3c4ccccc4cc4ccccc34)C(=O)NCCCCC(NC(=O)NC(CCC(=O)O)C(=O)O)C(=O)O)CC2)CCN(CC(=O)[O-])CC1.[68Ga+3] (stereo not shown) [^68Ga-HTK03041]
unit_info: % ID/g
readout_value: 4.32

molecule: O=C([O-])CN1CCN(CC(=O)[O-])CCN(CC(=O)NCCCC[C@H](NC(=O)CNC(=O)CCCc2ccc(Br)cc2)C(=O)NC[C@H]2CC[C@H](C(=O)N[C@@H](Cc3ccc4ccccc4c3)C(=O)NCCCC[C@H](NC(=O)N[C@@H](CCC(=O)O)C(=O)O)C(=O)O)CC2)CCN(CC(=O)[O-])CC1.[68Ga+3] [^68Ga-HTK03058]
unit_info: % ID/g
readout_value: 10.2

----------
Reported Blood uptake values for a set of compounds
Test system: mice bearing PSMA-expressing LNCAP cancer xenografts
Experiment: Biodistribution of 68Ga-labeled compounds
Type: in vivo
Settings: 1 h post-injection
Experimental: Imaging and biodistribution experiments were performed using NODSCID 1L2RyKO male mice. Mice were anesthetized by inhalation with 2% isoflurane in oxygen, and implanted subcutaneously with 1×10^7 LNCaP cells behind left shoulder. […] For biodistribution studies, the mice were injected with the radiotracer as described above. […] The collected organs/tissues were weighed and counted using an automatic gamma counter. […]

compound: Cc1ccc(CCCC(=O)NCC(=O)N[C@@H](CCCCNC(=O)CN2CCN(CC(=O)[O-])CCN(CC(=O)[O-])CCN(CC(=O)[O-])CC2)C(=O)NC[C@H]2CC[C@H](C(=O)N[C@@H](Cc3ccc4ccccc4c3)C(=O)NCCCC[C@H](NC(=O)N[C@@H](CCC(=O)O)C(=O)O)C(=O)O)CC2)cc1.[68Ga+3] [^68Ga-HTK03090]
tgt: mice bearing PSMA-expressing LNCAP cancer xenografts
Blood uptake, % ID/g: 16.8
//
compound: O=C([O-])CN1CCN(CC(=O)[O-])CCN(CC(=O)NCCCC[C@H](NC(=O)CNC(=O)CCCc2ccc(F)cc2)C(=O)NC[C@H]2CC[C@H](C(=O)N[C@@H](Cc3ccc4ccccc4c3)C(=O)NCCCC[C@H](NC(=O)N[C@@H](CCC(=O)O)C(=O)O)C(=O)O)CC2)CCN(CC(=O)[O-])CC1.[68Ga+3] [^68Ga-HTK03085]
tgt: mice bearing PSMA-expressing LNCAP cancer xenografts
Blood uptake, % ID/g: 5.73
//
compound: O=C([O-])CN1CCN(CC(=O)[O-])CCN(CC(=O)NCC2CCC(C(=O)NC(Cc3ccc4ccc5cccc6ccc3c4c56)C(=O)NCCCCC(NC(=O)NC(CCC(=O)O)C(=O)O)C(=O)O)CC2)CCN(CC(=O)[O-])CC1.[68Ga+3] (stereo not shown) [^68Ga-HTK03029]
tgt: mice bearing PSMA-expressing LNCAP cancer xenografts
Blood uptake, % ID/g: 3.93
//
compound: O=C([O-])CN1CCN(CC(=O)[O-])CCN(CC(=O)NCC2CCC(C(=O)NC(Cc3c4ccccc4cc4ccccc34)C(=O)NCCCCC(NC(=O)NC(CCC(=O)O)C(=O)O)C(=O)O)CC2)CCN(CC(=O)[O-])CC1.[68Ga+3] (stereo not shown) [^68Ga-HTK03041]
tgt: mice bearing PSMA-expressing LNCAP cancer xenografts
Blood uptake, % ID/g: 1.43

Origin of measurements: patent US20200339625A1
